B1: glmS ribozyme (parent)
chain: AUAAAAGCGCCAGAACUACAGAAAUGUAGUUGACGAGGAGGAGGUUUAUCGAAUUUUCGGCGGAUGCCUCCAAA

Variants of: B1
measurement_notes: self-cleavage kobs at 640 uM GlcN6P; higher = faster cleavage; RNA array
condition: with glucosamine-6-phosphate
This sample holds only a part of the variants without activity.
recorded_endpoint: self-cleavage kobs at 640 uM GlcN6P (s⁻¹)
Reply numerically in s⁻¹, unit not repeated.

Ask: What value of measured self-cleavage kobs at 640 uM GlcN6P is listed for U46C G66A ?
Result: 0.000364

Ask: What would you report for G40A A42G A53U ?
Result: 0.000733

Ask: What would you report for G29C U54C ?
Result: 0.000301

Ask: What would you report for G40U C71G ?
Result: 0.00193

Ask: What would you report for U31C U54C C67U ?
Result: 0.000176

Ask: What would you report for A12U G32U ?
Result: 6.09e-05

---
Ask: What value of measured self-cleavage kobs at 640 uM GlcN6P is listed for A33C G66A ?
Result: 6.35e-05

Ask: What would you report for C67A ?
Result: 0.004

Ask: What would you report for U45A A64C ?
Result: 7.26e-05

Ask: What would you report for U56A C67G ?
Result: 0.000684

Ask: What would you report for A36C G51A C70G ?
Result: 9.36e-05

Ask: What would you report for C50G C61A C67U ?
Result: 0.000392

Ask: What would you report for G32A C71A ?
Result: 0.000112

Ask: What would you report for U31C A64G ?
Result: 0.00109

Ask: What would you report for A53U C58G C68U ?
Result: 9.02e-05

Ask: What would you report for U45C U55G ?
Result: 0.000502
